Source listed as ChEMBL document CHEMBL2311253.

Here, each record is paired with measured Activity data.
# tested.system: Muscarinic acetylcholine receptor M1 (Homo sapiens) (UniProt P11229)
# Sequence (whole entry): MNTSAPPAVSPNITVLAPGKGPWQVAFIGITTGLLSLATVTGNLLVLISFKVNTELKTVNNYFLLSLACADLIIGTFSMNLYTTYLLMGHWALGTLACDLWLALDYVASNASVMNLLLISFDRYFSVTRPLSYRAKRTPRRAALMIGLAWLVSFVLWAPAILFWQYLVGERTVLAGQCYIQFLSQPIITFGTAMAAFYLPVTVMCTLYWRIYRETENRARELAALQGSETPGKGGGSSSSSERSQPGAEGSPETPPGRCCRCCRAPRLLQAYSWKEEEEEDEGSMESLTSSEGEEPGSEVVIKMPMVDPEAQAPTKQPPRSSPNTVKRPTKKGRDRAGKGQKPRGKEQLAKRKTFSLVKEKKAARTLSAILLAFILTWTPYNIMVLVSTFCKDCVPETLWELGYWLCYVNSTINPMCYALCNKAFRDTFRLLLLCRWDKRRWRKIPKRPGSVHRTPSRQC
# assay.protocol: Positive allosteric modulator activity at human muscarinic M1 receptor relative to acetylcholine by calcium mobilization assay
# Assay type: functional
# Parameters: concentration or dose not given beside the values
Express your answer in %, writing the number without its unit.

Use the examples below as a reference point.
# input Give reported Activity for Cn1cc(-c2ccc(CN3C(=O)C(O)(C(F)(F)F)c4ccccc43)c(F)c2)cn1 (racemic) (Muscarinic acetylcholine receptor M1 (Homo sapiens) (UniProt P11229))
# output 51

# input Give reported Activity for Cn1cc(-c2ccc(CN3C(=O)C(O)(C(F)(F)F)c4ccccc43)cc2)cn1 (racemic) (Muscarinic acetylcholine receptor M1 (Homo sapiens) (UniProt P11229))
# output 66

// moving on: another record for Activity
# input Give reported Activity for Cn1cc(-c2ccc(CN3C(=O)C(O)(C(F)(F)F)c4ccccc43)c(Cl)c2)cn1 (racemic) (Muscarinic acetylcholine receptor M1 (Homo sapiens) (UniProt P11229))
# output 29

====

Here, each record is paired with measured Activity data.
# tested.system: Muscarinic acetylcholine receptor M1 (Homo sapiens) (UniProt P11229)
# assay.protocol: Positive allosteric modulator activity at human muscarinic M1 receptor relative to acetylcholine by calcium mobilization assay
# Format: functional
# Set-up: concentration or dose not given beside the values
Express your answer in %, writing the number without its unit.

Use the examples below as a reference point.
# input Please give the documented Activity of Cn1cc(-c2ccc(CN3C(=O)C(O)(C(F)(F)F)c4ccccc43)c(F)c2)cn1 (stereo in doubt; 23h)
# output 57

# input Please give the documented Activity of `Cn1cc(-c2ccc(CN3C(=O)Cc4ccccc43)c(F)c2)cn1`
# output 64

# input Please give the documented Activity of `Cn1cc(-c2ccc(CN3C(=O)COc4ccccc43)c(F)c2)cn1`
# output 52

# input Please give the documented Activity of `Cn1cc(-c2ccc(CN3C(=O)CCc4ccccc43)c(F)c2)cn1`
# output 44

# input Please give the documented Activity of `Cn1cc(-c2ccc(CN3c4ccccc4CS3(=O)=O)c(F)c2)cn1`
# output 41

Others:
# input Please give the documented Activity of `Cn1cc(-c2ccc(CN3C(=O)CS(=O)(=O)c4ccccc43)c(F)c2)cn1`
# output 36

# input Please give the documented Activity of `Cn1cc(-c2ccc(CN3C(=O)OCc4ccccc43)c(F)c2)cn1`
# output 62
